Data origin, for the record: ChEMBL document CHEMBL4613324

- procedure_text: Toxicity in male Sprague-Dawley rat during 3-month repeated dose toxicology study
- details: in vivo
observed_property: NOAEL at 3 month (mg/kg)
Write the value in mg/kg as a bare number.

-- ask I am curious: what NOAEL at 3 month value has been reported for CS(=O)(=O)n1cc2c(n1)CN([C@@H]1C[C@H](N)[C@@H](c3cc(F)ccc3F)O[C@@H]1C(F)(F)F)C2 [COFROGLIPTIN] ?
-- reply 300

----------
- subject_of_test: Cytochrome P450 3A4 (Homo sapiens, UniProt P08684)
- Sequence (P08684 whole entry): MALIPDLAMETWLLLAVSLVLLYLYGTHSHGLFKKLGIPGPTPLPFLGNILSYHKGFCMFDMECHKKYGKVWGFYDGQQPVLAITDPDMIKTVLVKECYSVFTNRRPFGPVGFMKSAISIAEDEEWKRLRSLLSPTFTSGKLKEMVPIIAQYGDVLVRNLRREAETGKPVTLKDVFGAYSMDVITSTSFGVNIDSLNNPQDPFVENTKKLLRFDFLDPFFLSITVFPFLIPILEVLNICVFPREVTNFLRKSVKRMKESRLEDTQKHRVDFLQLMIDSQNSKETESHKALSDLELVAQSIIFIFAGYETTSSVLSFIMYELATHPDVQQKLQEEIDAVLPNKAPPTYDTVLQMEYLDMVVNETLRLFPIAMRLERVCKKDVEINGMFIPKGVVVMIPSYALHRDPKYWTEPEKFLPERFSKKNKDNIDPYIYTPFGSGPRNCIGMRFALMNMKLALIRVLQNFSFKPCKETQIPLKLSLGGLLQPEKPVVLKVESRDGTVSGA
- procedure_text: Inhibition of recombinant human CYP3A4 using midazolam as substrate
- Assay type: ADME
observed_property: IC50

-- ask I am curious: what IC50 value has been reported for CS(=O)(=O)n1cc2c(n1)CN([C@@H]1C[C@H](N)[C@@H](c3cc(F)ccc3F)O[C@@H]1C(F)(F)F)C2 ?
-- reply > 100 µM
